# System: RD
# test description: MTT antiproliferative assay
# Format: cell-based, human
# measurement parameters: 72 h, mean ± SD
assay endpoint: IC50 (µM)
Please reply with the bare figure in µM and do not write the unit itself.

Prompt line: Please give the measured IC50 for this molecule: N.N.[Cl][Pt][Cl] [cisplatin]
Response line: 4.6

---

# Test system: HCT116 (3D)
# test description: Cytotoxicity in 3D spheroids (colonospheres), Cell Titer-Glo 3D
# Type: cell-based, human
# measurement parameters: Cell Titer-Glo, spheroids, 72 h of treatment
# Description: A spontaneous spheroid formation was used to generate colonospheres derived from the HCT116 cell line. The HCT116 cells were seeded on 96-well ultralow attachment plates (1400 cells/well) and cultivated in a tumor sphere-forming medium (DMEM/F12, supplemented with B27 (Invitrogen), BSA, bFGF (10 ng mL^–1), and EGF (20 ng mL^–1)) for 4 days. […] The viability of colonospheres was determined by the Cell Titer-Glo 3D cell viability assay (Promega) according to the manufacturer’s instructions. […]
assay endpoint: pIC50
// returns pIC50 (minus log10 of molar concentration), number only

Prompt line: Please give the measured pIC50 for this compound: N.N.[Cl][Pt][Cl] [cisplatin]
Response line: 4.35

---

# Tested on: cancer cell lines (MCF-7, HeLa, 518A2, HCT116, RD) vs noncancerous MRC-5pd30
# test description: MTT panel: average IC50 of cancer cell lines and selectivity index
# Assay type: cell-based, human
# measurement parameters: average of IC50 values related to cancer cell lines
assay endpoint: IC50
Remember to put the unit after the number in your answer.

Prompt line: Please give the measured IC50 for this substance: [RuCl(κ^3-tpm)(PPh3){NCHNHC(CH)4C}]Cl [compound 4]
Response line: 31.6 µM

---

# System: HCT116
# test description: MTT antiproliferative assay
# Format: cell-based, human
# measurement parameters: 72 h, mean ± SD
assay endpoint: pIC50
// returns pIC50 (minus log10 of molar concentration), number only

Prompt line: What is its pIC50 for HCT116? Entry: [RuCl(κ^3-tpm)(PPh3){NCHNHC(CH)4C}]Cl [compound 4]
Response line: 4.60

Measured values drawn from paper PMC9376960 for this set.
